# Test system: CD2F1 mice, L1210 leukemia ip, survival T/C
# Protocol Summary: NCI In Vivo Anticancer Drug Screen. Data for tumor model L1210 Leukemia (intraperitoneal) in CD2F1 (CDF1) mice
# Condition Label: endpoint: mean survival time; dose: 12.5 mg/kg/injection; schedule: Q01DX009 (ip); vehicle: saline with Tween-80
Inconclusive results and toxic doses are left out. The calls were made as follows: active = survival T/C of 150% or more; inactive = T/C below 125% in these data.
Log the outcome using a class from active, inactive

Some solved cases for reference:
Compound	Class Name
O=C(Nc1ccccc1)Oc1ccc(OCc2ccccc2)cc1	inactive
Cc1ccc[n+](CCc2c[nH]c3ccccc23)c1	inactive
CC1(C)CC(=O)C2=C(C1)OC1(O)CC(C)(C)CC(=O)C1C2c1ccccc1[N+](=O)[O-] (centres undefined)	inactive
CN1CCCN(C)C1c1cc(Cl)ccc1O	inactive

Exercise: State the result this test recorded for CC1CCCN(CCSSCCN2CCCC(C)C2)C1 (centres undefined) .
Solution: inactive

Exercise: State the result this test recorded for `CC(=O)Nc1ccc(Nc2ccc(C(=C3C=CC(=[N+](C)CCC#N)C=C3)c3ccc(N(C)CCC#N)cc3)cc2)cc1` .
Solution: inactive

Exercise: State the result this test recorded for CCOC(=O)C(C)C(O)c1ccc(OC)cc1 (centres undefined) .
Solution: inactive

Exercise: State the result this test recorded for `COC(=O)Nc1nc2ccc(C3(c4ccc(F)cc4)OCCO3)cc2[nH]1` .
Solution: inactive

Exercise: State the result this test recorded for `Cc1ncc(CNC(=O)N(CCCl)N=O)c(N)n1` .
Solution: active

Exercise: State the result this test recorded for `C=CCNC(=S)NCCCCCCCCCCCCCCCCCC` .
Solution: inactive

Exercise: State the result this test recorded for `ON(C(=Nc1ccccc1)c1ccccc1Cl)c1ccccc1` .
Solution: inactive

====

# Tested on: CD2F1 mice, L1210 leukemia ip, survival T/C
# Protocol Summary: NCI In Vivo Anticancer Drug Screen. Data for tumor model L1210 Leukemia (intraperitoneal) in CD2F1 (CDF1) mice
# Condition Label: endpoint: mean survival time; dose: 100.0 mg/kg/injection; schedule: Q04DX003 (ip); vehicle: saline; higher = longer survival
Toxic doses and inconclusive results are not listed.
Listing of entries alongside the reported T/C.

Exercise: Query: T/C; subject: `O=[N+]([O-])c1ccc(N/N=C\c2ccc3ccccc3n2)cc1`
Solution: 106 % of control

Exercise: Query: T/C; subject: `[CH3][Sb]([CH3])([CH3])([Cl])[Cl]`
Solution: 101 % of control

Exercise: Query: T/C; subject: CC(C)(C)OCC(N)C(=O)OC(C)(C)C (stereo not given)
Solution: 93 % of control

Exercise: Query: T/C; subject: `CN(CC(=O)O)Cc1ccccc1`
Solution: 100 % of control

Exercise: Query: T/C; subject: `N=C(N)SCCCSC(=N)N`
Solution: 104 % of control

Exercise: Query: T/C; subject: CCCCC1CCC(N)CC1 (stereo not given)
Solution: 96 % of control

Exercise: Query: T/C; subject: `O=Cc1cc(Cl)cc(Cl)c1O.O=Cc1cc(Cl)cc(Cl)c1O.[Co]`
Solution: 96 % of control

Exercise: Query: T/C; subject: `CN(C)CCOc1cccc(Br)c1`
Solution: 100 % of control

Exercise: Query: T/C; subject: `O=S1(=O)c2ccccc2C(=NO)c2ccccc21`
Solution: 92 % of control

Exercise: Query: T/C; subject: `CCN(CC)CCN1C(=O)c2cccc3cccc(c23)C1=O`
Solution: 102 % of control
